Molecular target: wild type PRC2 (wtPRC2) complex (Homo sapiens, UniProt O75530)
Sequence (O75530 whole entry): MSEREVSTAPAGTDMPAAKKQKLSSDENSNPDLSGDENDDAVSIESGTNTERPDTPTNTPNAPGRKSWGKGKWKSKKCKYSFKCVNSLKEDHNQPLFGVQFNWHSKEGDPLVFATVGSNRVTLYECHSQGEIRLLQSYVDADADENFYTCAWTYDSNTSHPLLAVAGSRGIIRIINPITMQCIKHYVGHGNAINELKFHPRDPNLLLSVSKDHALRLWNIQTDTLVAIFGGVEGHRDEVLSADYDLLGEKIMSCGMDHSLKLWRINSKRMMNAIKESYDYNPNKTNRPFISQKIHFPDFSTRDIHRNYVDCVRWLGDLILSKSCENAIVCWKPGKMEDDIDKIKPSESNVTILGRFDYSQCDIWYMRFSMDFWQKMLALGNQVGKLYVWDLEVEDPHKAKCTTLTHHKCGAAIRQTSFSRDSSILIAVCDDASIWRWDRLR
Sequence (Q15910 whole entry partner): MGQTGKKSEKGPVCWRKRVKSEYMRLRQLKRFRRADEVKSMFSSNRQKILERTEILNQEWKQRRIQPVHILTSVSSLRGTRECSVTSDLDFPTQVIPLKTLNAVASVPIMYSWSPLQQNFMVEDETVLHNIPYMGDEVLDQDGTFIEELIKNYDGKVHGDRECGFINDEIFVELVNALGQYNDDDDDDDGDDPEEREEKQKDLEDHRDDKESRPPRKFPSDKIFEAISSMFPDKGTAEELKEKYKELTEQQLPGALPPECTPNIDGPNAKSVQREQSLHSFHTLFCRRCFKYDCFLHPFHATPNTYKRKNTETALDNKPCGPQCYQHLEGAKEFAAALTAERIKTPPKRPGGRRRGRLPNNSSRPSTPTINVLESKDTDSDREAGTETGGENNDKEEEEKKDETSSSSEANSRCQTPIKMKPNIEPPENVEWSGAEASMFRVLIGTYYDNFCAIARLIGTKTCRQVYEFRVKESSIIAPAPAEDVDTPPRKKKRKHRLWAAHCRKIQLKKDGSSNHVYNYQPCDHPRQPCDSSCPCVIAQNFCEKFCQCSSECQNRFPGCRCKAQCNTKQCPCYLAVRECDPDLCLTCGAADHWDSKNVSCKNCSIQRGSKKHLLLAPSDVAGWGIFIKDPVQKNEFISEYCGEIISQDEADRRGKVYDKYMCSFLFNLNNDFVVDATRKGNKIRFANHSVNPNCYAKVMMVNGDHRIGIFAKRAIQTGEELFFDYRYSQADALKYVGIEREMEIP
Sequence (Q15022 whole entry partner): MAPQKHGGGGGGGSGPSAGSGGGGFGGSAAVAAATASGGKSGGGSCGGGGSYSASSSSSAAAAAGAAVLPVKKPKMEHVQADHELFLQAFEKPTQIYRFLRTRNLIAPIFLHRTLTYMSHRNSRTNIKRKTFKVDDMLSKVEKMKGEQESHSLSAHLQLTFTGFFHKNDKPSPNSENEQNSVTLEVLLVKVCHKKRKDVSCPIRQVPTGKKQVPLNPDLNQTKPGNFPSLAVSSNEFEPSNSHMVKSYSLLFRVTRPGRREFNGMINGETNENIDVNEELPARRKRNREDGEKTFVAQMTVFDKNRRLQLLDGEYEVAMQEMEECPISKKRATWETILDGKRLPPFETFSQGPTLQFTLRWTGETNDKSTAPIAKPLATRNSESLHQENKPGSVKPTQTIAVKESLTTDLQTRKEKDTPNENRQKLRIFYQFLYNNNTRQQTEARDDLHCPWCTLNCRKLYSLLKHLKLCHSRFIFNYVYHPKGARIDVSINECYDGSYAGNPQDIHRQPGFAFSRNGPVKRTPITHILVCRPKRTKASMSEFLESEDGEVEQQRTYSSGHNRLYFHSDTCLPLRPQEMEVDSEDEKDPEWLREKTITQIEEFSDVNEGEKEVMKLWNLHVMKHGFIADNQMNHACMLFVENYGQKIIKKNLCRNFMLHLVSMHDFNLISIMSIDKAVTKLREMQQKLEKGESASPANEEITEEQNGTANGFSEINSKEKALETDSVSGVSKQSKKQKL
Sequence (Q09028 whole entry partner): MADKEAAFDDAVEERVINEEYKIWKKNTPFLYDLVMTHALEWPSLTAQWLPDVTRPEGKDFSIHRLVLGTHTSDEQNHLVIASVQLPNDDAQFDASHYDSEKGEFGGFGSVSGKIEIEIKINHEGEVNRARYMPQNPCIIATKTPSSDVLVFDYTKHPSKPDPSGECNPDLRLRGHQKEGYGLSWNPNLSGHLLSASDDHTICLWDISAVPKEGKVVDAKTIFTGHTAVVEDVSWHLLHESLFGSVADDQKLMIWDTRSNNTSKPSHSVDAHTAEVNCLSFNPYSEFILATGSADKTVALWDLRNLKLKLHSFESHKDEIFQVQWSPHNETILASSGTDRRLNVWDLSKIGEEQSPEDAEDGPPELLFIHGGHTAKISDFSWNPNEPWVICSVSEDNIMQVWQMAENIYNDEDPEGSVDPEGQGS
Sequence (Q6ZN18 whole entry partner): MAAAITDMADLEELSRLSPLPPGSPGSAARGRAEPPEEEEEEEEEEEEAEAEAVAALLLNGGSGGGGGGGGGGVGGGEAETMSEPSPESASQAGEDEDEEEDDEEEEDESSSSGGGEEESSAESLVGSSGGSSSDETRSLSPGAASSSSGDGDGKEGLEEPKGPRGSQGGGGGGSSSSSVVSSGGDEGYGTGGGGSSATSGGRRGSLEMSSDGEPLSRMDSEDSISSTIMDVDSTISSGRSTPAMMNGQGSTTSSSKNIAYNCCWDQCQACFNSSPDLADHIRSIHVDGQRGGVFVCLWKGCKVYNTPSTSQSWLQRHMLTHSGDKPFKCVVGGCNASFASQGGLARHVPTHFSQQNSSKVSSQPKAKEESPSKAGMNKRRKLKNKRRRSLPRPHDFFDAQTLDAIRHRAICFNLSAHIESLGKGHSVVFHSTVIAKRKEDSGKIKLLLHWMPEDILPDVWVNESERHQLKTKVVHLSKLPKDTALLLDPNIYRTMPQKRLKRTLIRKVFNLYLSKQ
Experiment: EED LC-MS assay (SAH production by PRC2)
Format: biochemical
Conditions: PRC2 LC-MS assay; read-out: (b) IC50 EED LC-MS Qualified
Answer each item with its documented IC50.

Task item: What IC50 appears in the records for this compound with wild type PRC2 (wtPRC2) complex (Homo sapiens, UniProt O75530)? COc1cc(F)cc(F)c1CNc1ccc(-c2c(C)noc2C)c2nncn12 [Example 227]
Reply: 131 nM

Task item: # value lookup — system wild type PRC2 (wtPRC2) complex (Homo sapiens, UniProt O75530), readout IC50, item COc1cccc(F)c1CNc1ccc(-c2cncnc2C(C)C)c2nncn12 [Example 273]
Reply: 99.7 nM

Task item: What measured IC50 is associated with COc1cccc(F)c1CNc1ccc(-c2cnn(C)c2C)c2nncn12 [Example 188] on wild type PRC2 (wtPRC2) complex (Homo sapiens, UniProt O75530)?
Reply: 93.1 nM

Task item: What is its IC50 for wild type PRC2 (wtPRC2) complex (Homo sapiens, UniProt O75530)? Entry: COc1cc(F)cc(F)c1CNc1ccc(-c2cncnc2C)c2nncn12 [Example 299]
Reply: 66.6 nM

Origin of values: patent US10689378B2
